This listing pairs molecules with measured DC50.
- measured.target: BRAF G466V (Homo sapiens, UniProt P15056, G466V)
- Construct: Horizon Discovery (HCT-116 BRAF−/− cells); host or cells: HCT-116 BRAF−/− cells, clone 8, lentiviral transduction
- Sequence (P15056 whole entry G466V): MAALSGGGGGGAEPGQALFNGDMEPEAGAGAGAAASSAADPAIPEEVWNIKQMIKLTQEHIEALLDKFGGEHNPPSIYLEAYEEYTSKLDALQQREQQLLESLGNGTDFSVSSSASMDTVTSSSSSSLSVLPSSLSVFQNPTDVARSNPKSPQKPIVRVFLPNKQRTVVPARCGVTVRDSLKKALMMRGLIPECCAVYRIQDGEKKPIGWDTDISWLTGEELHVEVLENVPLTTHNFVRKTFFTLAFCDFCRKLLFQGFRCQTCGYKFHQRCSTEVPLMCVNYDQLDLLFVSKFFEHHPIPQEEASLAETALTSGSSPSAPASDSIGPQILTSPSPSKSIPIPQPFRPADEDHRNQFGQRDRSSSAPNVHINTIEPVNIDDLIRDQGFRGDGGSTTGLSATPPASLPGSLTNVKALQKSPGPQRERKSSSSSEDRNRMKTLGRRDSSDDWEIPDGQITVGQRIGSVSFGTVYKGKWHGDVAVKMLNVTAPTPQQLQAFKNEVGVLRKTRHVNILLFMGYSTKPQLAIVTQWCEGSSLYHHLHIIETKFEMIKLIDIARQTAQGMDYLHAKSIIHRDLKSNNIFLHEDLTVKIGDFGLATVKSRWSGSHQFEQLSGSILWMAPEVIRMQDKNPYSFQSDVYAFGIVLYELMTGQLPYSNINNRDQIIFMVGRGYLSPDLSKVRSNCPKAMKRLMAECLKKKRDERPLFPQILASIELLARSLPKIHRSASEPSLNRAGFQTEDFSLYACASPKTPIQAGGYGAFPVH
- assay.protocol: BRAF HiBiT degradation assay, C-terminal HiBiT-tagged BRAF G466V overexpressed in HCT-116 BRAF−/− cells (clone 8), Nano-Glo HiBiT Lytic assay
- Assay type: cell-based
- reported.conditions: BRAF G466V (Class 3), HCT-116 BRAF−/− cells; DC50 at 50% degradation

Examples with their reported DC50 follow.
molecule	DC50
O=C1CCC(c2ccc(N3CCC(CN4CCN(c5ccc(-n6cc(-c7cc(Cl)cc(NS(=O)(=O)N8CC[C@@H](F)C8)c7F)c(-c7ccncc7)n6)c(F)c5)CC4)CC3)nc2)C(=O)N1 (mixture of isomers) [Compound 335]	< 10 nM
C[C@@H]1CN(c2ccc(-n3cc(-c4cc(Cl)cc(NS(=O)(=O)N5CC[C@@H](F)C5)c4F)c(-c4ccncc4)n3)nc2)CCN1CC1CCN(c2ccc(C3CCC(=O)NC3=O)cn2)CC1 (mixture of isomers) [Compound 321]	< 10 nM

Quick one: DC50 of C[C@@H]1CN(c2ccc(-n3cc(-c4cc(Cl)cc(NS(=O)(=O)N5CCCC5)c4F)c(-c4ccncc4)n3)nc2)CCN1CC1CCN(c2ccc(C3CCC(=O)NC3=O)cn2)CC1 (mixture of isomers) [Compound 323] ?
< 10 nM

Quick one: DC50 of O=C1CCC(c2ccc(N3CCC(CN4CCN(c5ccc(-n6cc(-c7cc(Cl)cc(NS(=O)(=O)N8CCCC8)c7F)c(-c7ccncc7)n6)c(F)c5)CC4)CC3)nc2)C(=O)N1 (racemic) [Compound 266] ?
< 10 nM

###

- measured.target: BRAF D594G (Homo sapiens, UniProt P15056, D594G)
- Construct: Horizon Discovery (HCT-116 BRAF−/− cells); host or cells: HCT-116 BRAF−/− cells, clone 63, lentiviral transduction
- Sequence (P15056 whole entry D594G): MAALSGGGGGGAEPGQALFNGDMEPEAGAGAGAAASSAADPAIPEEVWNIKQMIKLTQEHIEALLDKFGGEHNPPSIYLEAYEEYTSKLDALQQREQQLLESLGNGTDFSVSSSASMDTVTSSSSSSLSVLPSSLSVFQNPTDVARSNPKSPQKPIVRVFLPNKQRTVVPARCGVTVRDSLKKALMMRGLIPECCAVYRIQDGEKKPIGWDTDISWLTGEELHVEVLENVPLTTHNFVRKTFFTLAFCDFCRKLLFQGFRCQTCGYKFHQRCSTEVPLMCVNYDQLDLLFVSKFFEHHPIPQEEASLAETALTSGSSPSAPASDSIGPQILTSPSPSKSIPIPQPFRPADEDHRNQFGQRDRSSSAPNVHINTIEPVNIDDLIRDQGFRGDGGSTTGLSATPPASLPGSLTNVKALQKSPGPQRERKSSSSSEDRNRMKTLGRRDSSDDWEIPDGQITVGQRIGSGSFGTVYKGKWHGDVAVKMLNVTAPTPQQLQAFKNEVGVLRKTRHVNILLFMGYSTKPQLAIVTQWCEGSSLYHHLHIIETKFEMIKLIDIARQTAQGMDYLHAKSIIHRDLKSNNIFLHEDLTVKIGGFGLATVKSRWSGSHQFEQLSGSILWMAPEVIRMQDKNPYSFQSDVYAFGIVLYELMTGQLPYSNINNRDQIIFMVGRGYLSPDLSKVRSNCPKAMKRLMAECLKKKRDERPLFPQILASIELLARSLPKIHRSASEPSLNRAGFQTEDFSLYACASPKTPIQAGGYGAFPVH
- assay.protocol: BRAF HiBiT degradation assay, C-terminal HiBiT-tagged BRAF D594G overexpressed in HCT-116 BRAF−/− cells (clone 63), Nano-Glo HiBiT Lytic assay
- Type: cell-based
- reported.conditions: BRAF D594G (Class 3), HCT-116 BRAF−/− cells; observed Dmax relative to DMSO control
observation.type: Dmax

Examples with their reported Dmax follow.
molecule	measured.target	Dmax
O=C1CCN(c2ccc(N3CCC(CN4CCN(c5ccc(-n6cc(-c7cc(Cl)cc(NS(=O)(=O)N8CC(F)C8)c7F)c(-c7ccncc7)n6)c(F)c5)CC4)CC3)cc2)C(=O)N1	BRAF D594G (Homo sapiens, UniProt P15056, D594G)	30 to 70%
CCCS(=O)(=O)Nc1cc(Cl)cc(-c2cn(-c3ccc(N4CCN(CC5CCN(c6ccc([C@H]7CCC(=O)NC7=O)cc6)CC5)[C@@H](C)C4)cc3)nc2-c2ccncc2)c1F	BRAF D594G (Homo sapiens, UniProt P15056, D594G)	30 to 70%
O=C1CCC(c2ccc(N3CCC(CN4CCN(c5ccc(-n6cc(-c7cc(Cl)cc(NS(=O)(=O)N8CC[C@@H](F)C8)c7F)c(-c7ccncc7)n6)nc5)CC4)CC3)nc2)C(=O)N1 (mixture of isomers)	BRAF D594G (Homo sapiens, UniProt P15056, D594G)	> 70%
O=C1CCN(c2ccc(N3CCC(CN4CCN(c5ccc(-n6cc(-c7cc(Cl)cc(NS(=O)(=O)C8CCCC8)c7F)c(-c7ccncc7)n6)cc5)CC4)CC3)nc2)C(=O)N1	BRAF D594G (Homo sapiens, UniProt P15056, D594G)	30 to 70%

Lab note: next molecule to report on.
Quick one: Dmax of CCCS(=O)(=O)Nc1cccc(-c2nc(C3CCC4(CC3)CCN(CC3CCN(c5ccc(C6CCC(=O)NC6=O)cn5)CC3)CC4)sc2-c2ccnc(N)n2)c1F (racemic) ?
< 30%
